- Tested on: SF-295 CNS
- methodDescription: NCI-60 one-dose screen, 48 h
- conditionsUsed: 10 µM unless noted
About 83,000 compounds went through this panel and 20% of them were active in at least one assay; those are over-represented in the sample as a whole. Activity calls are given as the source filed them. Rule for the calls: active = growth percent below 10; inactive = the rest.
Entry note: the call must match one of active, inactive

Please review the following examples before continuing.
| compound | category |
| --- | --- |
| C=CCn1c(SCC(=O)Nc2ccc(C(=O)/C=C/c3ccc(Cl)cc3)cc2)nnc1-c1ccc(Br)cc1 | inactive |
| Clc1cc(Cl)c(Cl)c(-c2nnc(SCc3ccncc3Br)o2)c1 | inactive |
| O=C(C[C@]1(O)C(=O)Nc2ccccc21)c1cccc(C(F)(F)F)c1 | inactive |
| Cc1ccc(-c2nc(N3CCCNCC3)c3oc(-c4ccc(C)cc4)nc3n2)cc1 | inactive |
| c1ccc2cc(C[n+]3ccn(CCCCCCCCCCn4cc[n+](Cc5ccc6ccccc6c5)c4)c3)ccc2c1 | inactive |

Req: Status in this test for Cc1c[n+](Cc2ccc3ccccc3c2)cn1Cc1ccc2ccccc2c1 ?
Resp: inactive

Req: Assay result, entry NC(=O)C(=O)c1ccccc1NC=O — outcome?
Resp: inactive

Req: Per the records of this test, what outcome belongs to Nc1ncc(-c2ccc3ncnc(Nc4cccc(Cl)c4)c3c2)cn1 ?
Resp: inactive

Req: Tell me the recorded outcome of this test for CCN1C(=S)N(c2ccccc2)C2NC(=S)N(/N=C/C=C/c3ccccc3OC)C21 (stereo not given) .
Resp: inactive

Req: Can you look up the reported call for Cc1[nH]c(C(=O)Nc2ccccc2OC2CCNCC2)c(Cl)c1Cl for me?
Resp: active

----------
- Tested on: NCI-H226 lung
- methodDescription: NCI-60 one-dose screen, 48 h (100 = growth as untreated, 0 = no growth, -100 = all killed)
- conditionsUsed: 10 µM unless noted
About 83,000 compounds went through this panel and 20% of them were active in at least one assay; those are over-represented in the sample as a whole. Activity calls are given as the source filed them. How the source made its calls: active means growth percent below 10; inactive means the rest.
assayEndpoint: growth

Past entries and their recorded results:
| moleculeSmiles | systemTested | growth |
| --- | --- | --- |
| CCOC(=O)c1c(C(=O)c2cn(C)c3ccc(Br)cc23)c(-c2cn(C)c3ccc(Br)cc23)n(NC(=O)OC(C)(C)C)c1C | NCI-H226 lung | 89.7% [100 µM] (inactive) |
| COc1cc2cc(NCc3cccc(Cl)c3)nc(C)c2cc1OC | NCI-H226 lung | 35.8% (inactive) |
| O=C(N(c1ccccc1)c1ccccc1)n1cc(I)c2nc(Cl)nc(Cl)c21 | NCI-H226 lung | 71.8% (inactive) |
| COc1ccc(C2=C(Br)C(=O)c3nc(C)ccc3C2=O)cc1 | NCI-H226 lung | 83% (inactive) |

Briefly, growth measured for NC(=O)c1ccc(-c2c3ccccc3cc3c2ccc2ccccc23)cc1 : 65.6% (inactive)

----------
- Tested on: M14 melanoma
- methodDescription: NCI-60 one-dose screen, 48 h (100 = growth as untreated, 0 = no growth, -100 = all killed)
- conditionsUsed: 10 µM unless noted
About 83,000 compounds went through this panel and 20% of them were active in at least one assay; those are over-represented in the sample as a whole.
compounds and their reported growth
Reply numerically in %, unit not repeated.

Worked examples, 5 compounds total:
| compound | growth / % |
| --- | --- |
| c1cnc2c(-c3nc4ccc5[nH]ncc5c4c4c3CCCC4)c[nH]c2c1 | 59 |
| CCNCCNc1cc(C2CCCCC2)c(C#N)c2nc3ccccc3n12 | -66 |
| Cc1ccc(C[P+](c2ccccc2)(c2ccccc2)c2ccccc2)cc1 | 5.62 |
| COc1cc2c(c(OC)c1OC)CCC(c1cccc(C(=O)Nc3ccc(C#N)cc3)c1)O2 (centres undefined) | 37.7 |
| COCCNC(=O)Nc1ccc2nc(-c3cccs3)c(-c3cccs3)nc2c1 | 103 |

Result for CCCC/C(CC)=N\NS(=O)(=O)c1ccc([N+](=O)[O-])cc1 , tested on M14 melanoma, growth: 101

Sample N#Cc1c(-c2ccccc2)cc(-c2ccc(Nc3nc(Nc4ccc(Cl)cc4)nc(Nc4ccc(Cl)cc4)n3)cc2)nc1N , system: M14 melanoma. Its growth is 2

// growth (M14 melanoma) for COCCOc1cc2ncnc(N3CCN(c4ncc(S(=O)(=O)N5CCCCC5)cn4)CC3)c2cc1OCCOC = 97.8

Entry COCCOc1cc2ncnc(N3CCN(c4cc(S(C)(=O)=O)c(C)cc4Cl)CC3)c2cc1OCCOC : growth on M14 melanoma = 111
